assay: Partition coefficient (logD); format: physicochemical; settings: octanol/water
quantity: logD

{"smiles_input": "COc1cccc(OC)c1-c1ccc(C[C@H](/N=C(\\NCC(C)(C)C)[C@@H]2CCN2S(=O)(=O)c2ccccc2)C(=O)O)cc1", "quantity": "logD", "measured": 3.7}
{"smiles_input": "COc1cccc(OC)c1-c1ccc(C[C@H](/N=C(\\NS(C)(=O)=O)[C@@H]2CCN2S(=O)(=O)c2ccccc2)C(=O)O)cc1", "quantity": "logD", "measured": 2.4}
{"smiles_input": "COc1cccc(OC)c1-c1ccc(C[C@H](/N=C(\\NCC(=O)O)[C@@H]2CCN2S(=O)(=O)c2ccccc2)C(=O)O)cc1", "quantity": "logD", "measured": 1.9}
{"smiles_input": "CN/C(=N\\[C@@H](Cc1ccc(-c2c(OC)cccc2OC)cc1)C(=O)O)[C@@H]1CCN1S(=O)(=O)c1cc(Cl)cc(Cl)c1", "quantity": "logD", "measured": 2.7}
{"smiles_input": "COc1cccc(OC)c1-c1ccc(C[C@H](/N=C(\\NCC2CCOOCC2)[C@@H]2CCN2S(=O)(=O)c2ccccc2)C(=O)O)cc1", "quantity": "logD", "measured": 2.6}
{"smiles_input": "COc1cccc(OC)c1-c1ccc(C[C@H](/N=C(\\NCc2ccccn2)[C@@H]2CCN2S(=O)(=O)c2ccccc2)C(=O)O)cc1", "quantity": "logD", "measured": 2.8}
{"smiles_input": "CN/C(=N\\[C@@H](Cc1ccc(-c2c(OC)cccc2OC)cc1)C(=O)O)[C@@H]1CCN1S(=O)(=O)c1ccccc1", "quantity": "logD", "measured": 2.4}
{"smiles_input": "COc1cccc(OC)c1-c1ccc(C[C@H](NC(=O)[C@@H]2CCN2S(=O)(=O)c2ccccc2)C(=O)O)cc1", "quantity": "logD", "measured": 2.6}
